Measured values drawn from PubChem BioAssay (NCATS) for this set.

assay_procedure: Quantitative High-Throughput drug screen in 47 multiple myeloma cell lines against the NCATS MIPE library collection: KMS26_JCRB cell viability assay (AID 1918975); further: nearly all actives have a fitted effect of over 45% in size
test_context: KMS26 myeloma cells viability, CellTiter-Glo ATP, 48 h; series mostly up to 45.8 µM
Records with an inconclusive call do not appear. Calls of active or inactive are those of the source. The call rests on the fitted dose curve; in most records, active means well fitted cell-killing curve with a large enough effect; inconclusive means small, poorly fitted or top-dose-only effect, or effect the other way; inactive means no such curve, though single readings can be large or run the other way.
Respond only with the outcome that fits, drawn from t = active, f = inactive

{"columns": ["compound", "classification"],
 "data": [
  ["O=c1n(CCCN2CCN(c3cccc(Cl)c3)CC2)nc2ccccn12", "f"]
]}

Give the logged outcome of this assay for the following compound: NCCCC(N)(C(=O)O)C(F)F (stereo not given) f

Give the logged outcome of this assay for the following compound: Cc1csc(NC(=O)c2sc3nc4c(c(C(F)(F)F)c3c2N)CCC4)n1 f

Give the logged outcome of this assay for the following compound: N[C@@H]1CONC1=O f

Give the logged outcome of this assay for the following compound: Cc1cnc(Nc2ccc(OCCN3CCCC3)cc2)nc1Nc1cccc(S(=O)(=O)NC(C)(C)C)c1 f

====

assay_procedure: qHTS of pediatric cancer cell lines to identify multiple opportunities for drug repurposing: Primary screen for Saos-2 cells (AID 1347097); further: nearly all actives have a fitted effect of over 40% in size
test_context: Saos-2 viability, CellTiter-Glo ATP luminescence, 48 h; series mostly up to 46 µM
Results filed as inconclusive are left out. The source made the active and inactive calls. Calls come from the whole dose curve; as a rule, active = well fitted cell-killing curve with a large enough effect; inconclusive = small, poorly fitted or top-dose-only effect; inactive = no such curve, though single readings can be large or run the other way.
Respond only with the outcome that fits, drawn from Yes for active, No for inactive

{"columns": ["chem_smiles", "classification"],
 "data": [
  ["O=S(=O)(N=Cc1c(O)ccc2ccccc12)c1cccs1", "Yes"],
  ["Cc1[nH]c(=O)c(C#N)cc1-c1ccc2nccn2c1", "No"],
  ["CCCc1nc2c(C)cc(-c3nc4ccccc4n3C)cc2n1Cc1ccc(-c2ccccc2C(=O)O)cc1", "No"],
  ["NC(=O)c1ccc(-c2nc(-c3ccc4c(c3)OCCO4)c(-c3ccccn3)[nH]2)cc1", "No"]
]}

Consider now this further molecule.
Give the logged outcome of this assay for the following molecule: O=C(C1CC1)N1CC[C@@H](Cn2c(-c3ccc(-c4ccc5occc5c4)cc3)nc3cnccc32)C1 No

====

assay_procedure: qHTS of pediatric cancer cell lines to identify multiple opportunities for drug repurposing: Primary screen for Rh30 cells (AID 1347107); further: nearly all actives have a fitted effect of over 75% in size
test_context: Rh30 rhabdomyosarcoma viability, CellTiter-Glo luminescence, 48 h; series mostly up to 46 µM
Inconclusive results are not listed. The source made the active and inactive calls. Calls follow the shape of the dose curve; as a rule, active = well fitted cell-killing curve with a large enough effect; inconclusive = small, poorly fitted or top-dose-only effect; inactive = no such curve, though single readings can be large or run the other way.
observed_property: outcome

In the examples that follow, each entry is paired with its recorded outcome.
{"columns": ["molecule", "outcome"],
 "data": [
  ["Nc1nc2ccc(OC(F)(F)F)cc2s1", "inactive"],
  ["COc1c(Cl)cc2c([nH]c3cnccc32)c1NC(=O)c1cccnc1C", "inactive"],
  ["Cc1cc(SCc2sc(-c3ccc(C(F)(F)F)cc3)nc2C)ccc1OCC(=O)O", "inactive"],
  ["CO[C@@H]1[C@H](N(C)C(=O)c2ccccc2)C[C@H]2O[C@]1(C)n1c3ccccc3c3c4c(c5c6ccccc6n2c5c31)C(=O)NC4", "inactive"]
]}

Please examine the following record next.
Data request, read-out outcome, for Oc1ccc(C2CNCCc3c2cc(O)c(O)c3Cl)cc1 (stereo not given) inactive

====

assayed_system: Estrogen receptor (Homo sapiens) (UniProt P03372)
Sequence (P03372 whole entry, looked up): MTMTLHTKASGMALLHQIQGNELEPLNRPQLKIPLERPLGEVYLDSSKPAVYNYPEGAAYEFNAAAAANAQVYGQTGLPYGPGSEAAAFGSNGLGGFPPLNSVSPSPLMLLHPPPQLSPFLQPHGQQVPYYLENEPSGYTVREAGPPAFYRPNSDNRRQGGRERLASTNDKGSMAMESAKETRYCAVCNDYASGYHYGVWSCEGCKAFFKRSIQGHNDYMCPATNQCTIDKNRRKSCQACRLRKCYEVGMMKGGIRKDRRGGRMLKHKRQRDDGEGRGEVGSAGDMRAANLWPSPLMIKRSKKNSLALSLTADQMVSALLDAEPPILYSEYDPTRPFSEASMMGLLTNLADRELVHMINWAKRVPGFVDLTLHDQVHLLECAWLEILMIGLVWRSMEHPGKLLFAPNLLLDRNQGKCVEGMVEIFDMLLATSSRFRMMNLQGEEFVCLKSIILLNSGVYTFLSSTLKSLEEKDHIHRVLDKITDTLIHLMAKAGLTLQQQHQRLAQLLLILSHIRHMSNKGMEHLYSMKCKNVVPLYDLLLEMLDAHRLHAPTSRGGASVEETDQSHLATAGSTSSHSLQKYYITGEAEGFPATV
assay_procedure: qHTS assay for small molecule antagonists of estrogen receptor alpha signaling (AID 588513)
test_context: ER-alpha-UAS-bla HEK293, beta-lactamase ratio, antagonist mode; series mostly up to 76.9 µM
Results filed as inconclusive are left out. Calls of active or inactive are those of the source. The call rests on the fitted dose curve; in most records, active means well fitted curve in the direction sought with a large enough effect in the signal ratio, with a control signal flat (not every such curve was filed as active); inconclusive means small, poorly fitted or top-dose-only effect, or effect the other way, or a change in a side signal; inactive means no such curve, though single readings can be large or run the other way; the % refers to the signal ratio.
Respond only with the outcome that fits, drawn from TRUE for active, FALSE for inactive

Give the logged outcome of this assay for the following molecule: O=c1[nH]cnc2[nH]ncc12 FALSE

Give the logged outcome of this assay for the following molecule: CC(C)(Sc1ccc(CCN(CCCCC2CCCCC2)C(=O)NC2CCCCC2)cc1)C(=O)O TRUE

Give the logged outcome of this assay for the following molecule: NC(=O)c1cnccn1 FALSE

Give the logged outcome of this assay for the following molecule: Cn1cnc([N+](=O)[O-])c1Sc1ncnc2nc[nH]c12 FALSE

Give the logged outcome of this assay for the following molecule: Cc1ccccc1C(OCCN(C)C)c1ccccc1 (stereo not given) FALSE

====

Form field: Potency (one value per entry).
assay_procedure: Cell Proliferation Assay Versus the ED40515 IL2 Independent ATL cell lines (AID 1053194)
test_context: ED40515 IL2-independent ATL cells
Active and inactive are the calls of the source. Calls come from the whole dose curve.

Data request, read-out Potency, for S=C(NCc1ccc2c(c1)OCO2)N1CCN(c2ncnc3c2oc2ccccc23)CC1 3.32 µM (active)

Data request, read-out Potency, for CNC(=O)c1ccccc1Sc1ccc2c(/C=C/c3ccccn3)n[nH]c2c1 16.6 µM (active)

Data request, read-out Potency, for CS(=O)(=O)c1cccc(CNc2nc(Nc3ccc4c(c3)CCC(=O)N4)ncc2C(F)(F)F)c1 4.69 µM (active)

Data request, read-out Potency, for CN(C)C(=O)c1ccc(S(=O)(=O)c2ccc(NC(=O)[C@@](C)(O)C(F)(F)F)c(Cl)c2)cc1 9.35 µM (active)

Data request, read-out Potency, for C[C@@H]1C[C@H]2[C@@H]3CCC4=CC(=O)C=C[C@]4(C)C3(F)[C@@H](O)C[C@]2(C)[C@@]1(O)C(=O)CO (some centres not stated) 20.9 µM (active)

Data request, read-out Potency, for N#CC[C@H](C1CCCC1)n1cc(-c2ncnc3[nH]ccc23)cn1 20.9 µM (active)

Data request, read-out Potency, for CC(C)OC(=O)C1=CN(C(=O)c2ccc(F)c(F)c2)CC(C)(C)c2c1[nH]c1ccccc21 11.8 µM (active)

Data request, read-out Potency, for C/C(=C\C(=O)Nc1ccccc1C(=O)O)c1ccc2ccccc2c1 8.33 µM (active)

Data request, read-out Potency, for CC(=O)NC(C)c1ccc(Oc2ccc(OC(C)C)cc2)cc1 (configuration not stated) 10.5 µM (active)

====

System: Zika virus NS2B-NS3 protease
assay_procedure: Primary screen GU AMC qHTS for Zika virus inhibitors (AID 1347154); further: nearly all actives have a fitted effect of over 70% in size
test_context: Zika NS2B-NS3 unlinked protease, AMC fluorogenic substrate; series mostly up to 54.1 µM
Text: Avindra Nath, Ph.D., National Institute of Neurological Disorders and Stroke (NINDS), Bethesda, MD Radhakrishnan Padmanabhan, Ph.D., Georgetown University (GU), Washington D.C. Zika Virus causes congenital defects, including microcephaly and is associated with Guillain-Barre syndrome, eningoencephalitis and myelitis in infected adult. […]
Inconclusive results are not listed. Calls of active or inactive are those of the source. Calls come from the whole dose curve; as a rule, active = well fitted inhibition curve with a large enough effect; inconclusive = small, poorly fitted or top-dose-only effect; inactive = flat fitted curve, though single readings scatter.
Respond only with the outcome that fits, drawn from active, inactive

Give the logged outcome of this assay for the following compound: CCn1c(-c2nonc2N)nc2cnc(Oc3cccc(NC(=O)c4ccc(OCCN5CCOCC5)cc4)c3)cc21 inactive

Give the logged outcome of this assay for the following compound: C[C@]1(c2nc3c(C(N)=O)cccc3[nH]2)CCCN1 inactive

Give the logged outcome of this assay for the following compound: CCCCCCCc1ccc(CCc2cccc(O)c2C(=O)O)cc1 active

Give the logged outcome of this assay for the following compound: COc1ccccc1[C@H](c1cccc2ccccc12)[C@@](C)(C#N)C(=O)N1CCC(c2cccc(C(F)(F)F)c2)CC1 inactive

Give the logged outcome of this assay for the following compound: OC(CN1CCC(Cc2ccc(F)cc2)CC1)c1ccc(Cl)cc1 (stereo not given) inactive

====

assay_procedure: qHTS of pediatric cancer cell lines to identify multiple opportunities for drug repurposing: Primary screen for Rh41 cells (AID 1347108); further: nearly all actives have a fitted effect of over 70% in size
test_context: Rh41 rhabdomyosarcoma viability, CellTiter-Glo luminescence, 48 h; series mostly up to 46 µM
Records with an inconclusive call do not appear. The source made the active and inactive calls. Calls follow the shape of the dose curve; as a rule, active = well fitted cell-killing curve with a large enough effect; inconclusive = small, poorly fitted or top-dose-only effect; inactive = no such curve, though single readings can be large or run the other way.
Respond only with the outcome that fits, drawn from active, inactive

{"columns": ["molecule", "classification"],
 "data": [
  ["C[C@H](NC(=O)Cc1cc(F)cc(F)c1)C(=O)N[C@@H]1C(=O)N(C)c2ccccc2-c2ccccc21", "active"],
  ["NC(=O)c1ccc(-c2nc(-c3ccc4c(c3)OCO4)c(-c3ccccn3)[nH]2)cc1", "inactive"],
  ["COc1ccc([C@@H]2CC(=O)c3c(O)cc(O[C@@H]4O[C@H](CO[C@@H]5O[C@@H](C)[C@H](O)[C@@H](O)[C@@H]5O)[C@@H](O)[C@H](O)[C@@H]4O)cc3O2)cc1O", "inactive"],
  ["CNC[C@H](O)c1cccc(O)c1", "inactive"],
  ["CC(c1cc2ccccc2s1)N(O)C(N)=O (stereo not given)", "inactive"],
  ["CCc1ccc(CCOc2ccc(CC3SC(=O)NC3=O)cc2)nc1 (stereo not given)", "inactive"],
  ["Cn1cnc2c(F)c(Nc3ccc(Br)cc3Cl)c(C(=O)NOCCO)cc21", "active"],
  ["CCOC(=O)C1=C[C@]2(CC)CCCN3CCc4c(n1c1ccccc41)[C@@H]32", "inactive"],
  ["C[C@]12CCC(=O)C=C1CC[C@@H]1[C@@H]2[C@@H](O)C[C@@]2(C)[C@H]1CC[C@]2(O)C(=O)CO", "inactive"]
]}

Consider now this further molecule.
Give the logged outcome of this assay for the following molecule: N=c1nc(N2CCCCC2)cc(N)n1O inactive
